Test system: 3T3 NRU phototoxicity
Assay: In vitro phototoxicity test (3T3 NRU)
Assay type: cell-based
Conditions: ICH S10 / OECD 432 in vitro 3T3 NRU phototoxicity test
ATTRIBUTE MEASURED: phototoxic effect

Consider the following illustrative entries.
structure_notation=COc1ccc(-c2nnc(N[C@@H]3CCCC[C@H]3O)nc2C)c(O)c1 recorded_result="no phototoxic effect"
structure_notation=Cc1nc(N[C@@H]2CCCC[C@H]2N)nnc1-c1ccc(C(F)(F)F)cc1O recorded_result="no phototoxic effect"
structure_notation=Cc1nc(N[C@@H]2CCCC[C@H]2O)nnc1-c1ccc(OC(F)F)cc1O recorded_result="no phototoxic effect"
structure_notation=Cc1nc(N[C@@H]2CCC[C@H](O)C2)nnc1-c1ccc(C(F)(F)F)cc1O recorded_result="no phototoxic effect"

Lab note: next molecule to report on.
Param readout = phototoxic effect; param system = 3T3 NRU phototoxicity; param query = `Cc1nc(N[C@@H]2CCCN(C)C2)nnc1-c1ccc(C(F)(F)F)cc1O` ; response: value
no phototoxic effect
